ASSAY COMMENT: amyloid nucleation score (Sup35N fusion, yeast selection) (log enrichment); library NNK1; higher = more nucleation; inactive = no reads after selection;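 further: zero at mode of non-aggregating sequences after 7 days selection at 30°C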
// reported amyloid nucleation score for each item listed
Answer with the value's number alone.

Reference set, count: 3
substance=LNNYNGVTVGWGNSWYLYLG observed_value=-0.116
substance=KLINCLGIVL observed_value=-0.92
substance=HSHRVIS observed_value=0.828

For the substance shown here, CFLETMDFGH , give the reported amyloid nucleation score.
-0.472

For the substance shown here, NYSEPDFKFHCVYGVYAMWG , give the reported amyloid nucleation score.
0.403

For the substance shown here, WTISSKGFFCWINCGLLQKR , give the reported amyloid nucleation score.
5.7

For the substance shown here, MNMICSFL , give the reported amyloid nucleation score.
-1.39

For the substance shown here, LCRFSAEDHCYADCTVDHCC , give the reported amyloid nucleation score.
-0.244

The reported measurements were obtained from the supplement of paper PMC12042874.
